# assay-info: Therapeutic index, ratio of IC50 for mock-infected human H9 cells to EC50 for HIV1 3B
# Type: cell-based
# conditions-used: read-out: TI
observable: selectivity ratio

{"columns": ["smiles-code", "observable", "meas-value"],
 "data": [
  ["COc1c2c(cc3c1-c1c(cc4c(c1OC)OCO4)[C@H](OC(=O)c1ccccc1)[C@@H](C)[C@@H](C)C3)OCO2", "selectivity ratio", 13.2],
  ["Cc1cn([C@H]2C[C@H](N=[N+]=[N-])[C@@H](CO)O2)c(=O)[nH]c1=O", "selectivity ratio", 250000],
  ["COc1c2c(cc3c1-c1c(cc4c(c1OC)OCO4)[C@H](OC(=O)c1ccccc1)[C@@](C)(O)[C@@H](C)C3)OCO2", "selectivity ratio", 50.6]
]}
